I'd appreciate it if you could supply log10 of Kd values for the items below.
Biological target: T1, EsCas13d, nuclease-dead (Eubacterium siraeum, UniProt B0MS50, R295A;H300A;R849A;H854A)
T1 sequence: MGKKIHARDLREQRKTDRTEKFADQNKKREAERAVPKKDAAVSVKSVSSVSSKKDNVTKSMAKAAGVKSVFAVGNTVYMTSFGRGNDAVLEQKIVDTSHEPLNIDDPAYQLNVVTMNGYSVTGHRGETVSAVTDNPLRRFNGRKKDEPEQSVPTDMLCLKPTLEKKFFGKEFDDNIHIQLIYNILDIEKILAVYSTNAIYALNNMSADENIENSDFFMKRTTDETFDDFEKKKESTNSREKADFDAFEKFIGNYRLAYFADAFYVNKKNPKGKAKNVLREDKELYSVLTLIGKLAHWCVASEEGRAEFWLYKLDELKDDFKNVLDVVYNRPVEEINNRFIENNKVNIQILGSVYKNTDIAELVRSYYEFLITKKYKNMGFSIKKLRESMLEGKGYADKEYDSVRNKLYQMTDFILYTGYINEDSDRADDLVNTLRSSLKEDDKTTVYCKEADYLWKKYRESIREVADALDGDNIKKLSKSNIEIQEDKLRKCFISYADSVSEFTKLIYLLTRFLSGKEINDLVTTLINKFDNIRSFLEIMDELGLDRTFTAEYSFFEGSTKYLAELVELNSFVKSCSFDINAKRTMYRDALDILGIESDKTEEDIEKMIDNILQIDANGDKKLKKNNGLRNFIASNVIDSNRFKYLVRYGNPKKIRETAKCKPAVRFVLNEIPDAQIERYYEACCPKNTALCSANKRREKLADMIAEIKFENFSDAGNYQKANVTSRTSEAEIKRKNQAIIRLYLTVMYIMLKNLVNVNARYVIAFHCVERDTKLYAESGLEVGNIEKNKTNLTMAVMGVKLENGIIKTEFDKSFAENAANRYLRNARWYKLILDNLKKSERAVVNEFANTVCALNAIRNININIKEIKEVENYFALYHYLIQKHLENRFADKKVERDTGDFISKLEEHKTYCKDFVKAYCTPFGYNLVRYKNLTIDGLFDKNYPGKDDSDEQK
Test: crRNA (strand 1, pre-loaded); Mg2+; 40 mM Tris-HCl pH 7.5, 150 mM NaCl, 6 mM MgCl2, 1 mM DTT, 0.1% Tween-20, 0.2 mg/ml BSA; 25 C; 10 min per concentration, then washed
Settings: tags: His6-TwinStrep-SUMO cleaved; N-terminal SNAP kept (SNAP-Surface 488); label: 3' end held by stalled T7 RNA polymerase
Lab note - Kd converted to log10 from values in nM.

Name the recorded log10 of Kd of the item target 1 complement block 6-14 (mixed) RNA 1: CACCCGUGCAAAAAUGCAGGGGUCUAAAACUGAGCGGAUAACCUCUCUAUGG RNA 2: GGGAAUGGAUCCACAUCUACGAAUUCGUACCAUAGAGUCCAAUAGGGCUCACCGAGAUCGGAAGAGCACACGU in your answer. 1.84

Please supply the value of reported log10 of Kd for the item target 2 MT 5'PFS AGU 3'PFS CGU (mixed) RNA 1: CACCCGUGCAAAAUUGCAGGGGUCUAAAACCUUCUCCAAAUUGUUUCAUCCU RNA 2: GGGAAUGGAUCCACAUCUACGAAUUCAGUAGGAUGAAACAAUUUGGAGAAGCGUAGAUCGGAAGAGCACACGU 1.14

Please give measured log10 of Kd of the following entry: target 1 MT 5'PFS UCG 3'PFS UGU (mixed) RNA 1: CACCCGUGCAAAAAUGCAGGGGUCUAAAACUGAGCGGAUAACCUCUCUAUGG RNA 2: GGGAAUGGAUCCACAUCUACGAAUUCUCGCCAUAGAGAGGUUAUCCGCUCAUGUAGAUCGGAAGAGCACACGU 1.76

Tell me its log10 of Kd given target 2 MT 5'PFS CUC 3'PFS UAU (mixed) RNA 1: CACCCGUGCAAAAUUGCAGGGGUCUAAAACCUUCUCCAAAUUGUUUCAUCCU RNA 2: GGGAAUGGAUCCACAUCUACGAAUUCCUCAGGAUGAAACAAUUUGGAGAAGUAUAGAUCGGAAGAGCACACGU as the entry. 0.30

Give log10 of Kd for target 1 insG 3' of 3,insC 3' of 3 (mixed) RNA 1: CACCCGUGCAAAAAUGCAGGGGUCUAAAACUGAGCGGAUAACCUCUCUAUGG RNA 2: GGGAAUGGAUCCACAUCUACGAAUUCGUACCAUAGAGAGGUUAUCCGCUGCCACCGAGAUCGGAAGAGCACACGU 1.06

Give log10 of Kd for the following binder: target 2 MT 5'PFS CAC 3'PFS ACU (mixed) RNA 1: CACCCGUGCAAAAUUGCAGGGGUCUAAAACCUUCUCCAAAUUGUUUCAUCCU RNA 2: GGGAAUGGAUCCACAUCUACGAAUUCCACAGGAUGAAACAAUUUGGAGAAGACUAGAUCGGAAGAGCACACGU 0.43

Give log10 of Kd for target 1 MT 5'PFS UAG 3'PFS AAG (mixed) RNA 1: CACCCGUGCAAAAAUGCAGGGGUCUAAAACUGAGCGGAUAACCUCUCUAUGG RNA 2: GGGAAUGGAUCCACAUCUACGAAUUCUAGCCAUAGAGAGGUUAUCCGCUCAAAGAGAUCGGAAGAGCACACGU 1.66
